subject-of-test: Cytochrome P450 3A4 (Homo sapiens) (UniProt P08684)
Sequence (P08684 whole entry, looked up): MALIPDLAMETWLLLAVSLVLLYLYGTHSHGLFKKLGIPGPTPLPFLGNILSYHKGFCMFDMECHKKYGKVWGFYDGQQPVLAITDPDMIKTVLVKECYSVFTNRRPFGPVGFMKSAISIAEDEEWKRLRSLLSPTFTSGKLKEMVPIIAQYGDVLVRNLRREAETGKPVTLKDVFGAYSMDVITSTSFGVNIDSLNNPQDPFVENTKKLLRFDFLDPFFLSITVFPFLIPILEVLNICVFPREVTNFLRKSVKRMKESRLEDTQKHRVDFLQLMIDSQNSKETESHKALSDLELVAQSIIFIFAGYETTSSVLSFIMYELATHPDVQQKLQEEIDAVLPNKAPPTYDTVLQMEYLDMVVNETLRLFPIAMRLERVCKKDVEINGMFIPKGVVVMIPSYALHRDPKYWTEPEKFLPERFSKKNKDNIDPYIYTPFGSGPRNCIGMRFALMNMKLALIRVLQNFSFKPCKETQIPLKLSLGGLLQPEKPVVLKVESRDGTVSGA
assay-notes: Cytochrome panel assay with activity outcomes
experimental-setup: recombinant CYP, pro-luciferin dealkylation, luminescence, p450-cyp3a4; series mostly up to 57.1 µM
Out of some 16,000 compounds screened, about 5,100 (32%) were called active. About 25% were inconclusive and are not listed. This is one part of the list.
value-type: AC50

Below, each entry is followed by its recorded AC50 result.
                                   molecule  experimental_value
0  O=c1c(-c2ccc(Cl)cc2)nc2cnc(N3CCNCC3)nc2n1Cc1cccs1    5.01 µM (active)
1  O=c1c(-c2ccccc2)nc2cnc(N3CCOCC3)nc2n1Cc1cccs1            inactive
2             Cn1c(C(=O)Nc2ccccc2)cc2sccc21    25.1 µM (active)
3  Cn1c(=O)c(-c2cc(F)cc(F)c2)nc2cnc(N3CCOCC3)nc21            inactive
4   COc1ccc(CNc2ccnc(-c3ccccc3OC)n2)c(OC)c1    6.31 µM (active)

// field: AC50; key: CC1=C(C(=O)Nc2cccnc2)C(c2cccnc2)n2nc(-c3cccs3)nc2N1 (stereo unspecified) ; value = 14.1 µM (active)

The molecule listed as "CCOC(=O)c1c(C(C)(C)C)oc2ccc(O)cc12" shows AC50 equal to inactive

Memo: "CCOC(=O)c1c(C)oc2c1cc(O)c1ccccc12" , reported AC50: 14.1 µM (active)

Recorded result, COc1ccccc1NC(=O)C1=C(C)Nc2nnnn2C1c1cccc(Br)c1 (stereo unspecified) , AC50: 2.51 µM (active)

Entry "O=c1c(-c2cc(F)cc(F)c2)nc2cnc(N3CCNCC3)nc2n1Cc1cccs1" , AC50 reported as 10 µM (active)

Notebook: CCOC(=O)c1c(C)oc2c1c(C=NC1CCS(=O)(=O)C1)c(O)c1ccccc12 (stereo unspecified) , AC50 read as inactive

----------
subject-of-test: Cytochrome P450 3A4 (Homo sapiens) (UniProt P08684)
assay-notes: Cytochrome panel assay with activity outcomes
experimental-setup: recombinant CYP, pro-luciferin dealkylation, luminescence, p450-cyp3a4; series mostly up to 57.1 µM
Screen size: about 16,000 compounds; about 5,100 (32%) were called active. Roughly 25% stayed inconclusive and do not appear here. The call rests on the fitted dose curve; in most records, active means well fitted curve in the direction sought with a large enough effect; inconclusive means small, poorly fitted or top-dose-only effect, or effect the other way; inactive means no such curve, though single readings can be large or run the other way. This is one part of the list.
Valid outcomes are listed here; reply with one: yes = active, no = inactive

Which outcome did this test record for the molecule "CN(C)S(=O)(=O)c1ccc(C(=O)Nc2ccc(CN3CCCC3)cc2)cc1" ?
no

Query: recorded result category for "COc1cccc(=O)c2c(C)n(-c3cc(C)cc(C)c3)c(C)c12" in this test
yes

Answer briefly: the call reported for "CCc1ccc(N/C(SCc2ccccc2C)=C(/C#N)C(=O)NCc2ccco2)cc1" in this assay.
yes

Identify the outcome logged in this assay for the molecule shown: "O=C(CSc1nnc(-c2ccccc2)n1-c1ccccc1)c1cccs1"
yes

State the result this test recorded for "Cc1ccc(C(=O)NNC(=O)CSc2nnc(-c3ccncc3)n2-c2ccc(C)cc2)cc1" .
yes

I would be grateful if you could indicate the recorded call for "COc1ccc(-c2oc3ccccc3c(=O)c2OC(=O)c2ccc(C)cc2)cc1" .
no

Lab log entry: "Cc1ccccc1NC(=O)CSc1nnc(-c2ccccc2)n1-c1ccccc1" — outcome as called in the assay?
yes

What outcome does the record of this test show for "COc1ccc(-n2c(C)n[nH]c2=O)cc1OC" ?
no

Outcome logged for "CCn1c(SCC(=O)Nc2ccccc2C(=O)OC)nnc1-c1ccc(N)cc1" in this assay:
yes

Recorded call for "CN(C)S(=O)(=O)c1ccc(NC(=O)COC(=O)c2ccccn2)cc1" ?
no

Could you kindly confirm the outcome this assay logged for "CCOC(=O)c1oc2ccccc2c1NC(=O)c1ccc2c(c1)OCO2" ?
yes

Reference source: PubChem BioAssay AID1851
